Record form. Attribute: viability. Fill in for each entry.
experiment: ovarian cancer cell viability with rucaparib, profiling panel, oncology-focused library, rucaparib conditional (AID 1508598); conditions: patient-derived ovarian cancer cells, CellTiter-Glo viability, 144 h; at 0.0195 µM; OCI-C5x cells; with rucaparib 10 µM; hits give low values; 100% = cells with rucaparib alone
// note: answer is a bare numeric in %

-- ask viability lookup needed for Cc1ccc(-c2cc(C(F)(F)F)nn2-c2ccc(S(N)(=O)=O)cc2)cc1 , thanks.
-- reply 115

-- ask # query: viability of entry O=c1[nH]cnc2[nH]ncc12
-- reply 114

-- ask Quick one: viability of CN(CCOc1ccc(CC2SC(=O)NC2=O)cc1)c1ccccn1 (centres undefined) ?
-- reply 114

-- ask Data request, read-out viability, for CC1=C(/C=C/C(C)=C/C=C/C(C)=C/C(=O)O)C(C)(C)CCC1
-- reply 106

-- ask Give the measured viability of S=c1nc[nH]c2nc[nH]c12 .
-- reply 104

-- ask Name the reported viability value associated with the molecule O=C1CCC(N2C(=O)c3ccccc3C2=O)C(=O)N1 (centres undefined)
-- reply 111

-- ask Could you tell me which viability is on file for CC(C)C(=O)Nc1ccc([N+](=O)[O-])c(C(F)(F)F)c1 ?
-- reply 114

-- ask Which viability value belongs to CCN(CC)C(=S)SSC(=S)N(CC)CC ?
-- reply 128

-- ask # viability lookup, item NC(=O)c1ccc(-c2nc(-c3ccc4c(c3)OCO4)c(-c3ccccn3)[nH]2)cc1
-- reply 136

###

test: HCT116 colon cancer cell growth inhibition, primary screen, CellTiter-Glo luminescence, NPC library (AID 1117342); settings: at 20 µM (top of the series)
Activity calls are given as the source filed them.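 Rule for the calls: active = compounds that lower survival of HCT116 colon cancer cells in the luminescence readout, no numeric limit stated; inactive = the rest.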
Thanks in advance; please answer with one of these: active, inactive

-- ask Tell me the recorded outcome of this test for COc1ccc(/C(C)=C/C(=O)O)c(OC)c1 .
-- reply inactive

-- ask Called result for O=C(NCN1CCOCC1)c1cnccn1
-- reply inactive

-- ask Assay outcome for C#C[C@]1(O)CC[C@H]2[C@@H]3CCC4=Cc5oncc5C[C@]4(C)[C@H]3CC[C@@]21C : what was it?
-- reply active

-- ask // outcome(item) with item = CCCCCCCCCCCCCCCCCCNC(=O)OC1CCN(C(=O)OC[C@H](COC(=O)N(Cc2cccc[n+]2CC)C(=O)c2ccccc2OC)OC)CC1
-- reply active

-- ask Query: recorded result category for CN1CCC[C@@H]1c1cccnc1 in this test
-- reply inactive

-- ask # lookup: test call for COc1ccc(C(=O)N2CCN(CC(=O)N3CCOCC3)CC2)cc1
-- reply inactive

-- ask How did this test come out for O=C(Nc1ccc(Oc2ccc(Cl)cc2)c(Cl)c1)c1cc(I)cc(I)c1O ?
-- reply active

-- ask Name the outcome recorded for COC(=O)c1cccnc1 in the assay.
-- reply inactive

-- ask Hey, what did the test say about CCCCCCCC/C=C\CCCCCCCCN ?
-- reply inactive

-- ask Recorded test outcome, item CCCCCC=CCC=CCCCCCCCC(=O)OCC
-- reply inactive

-- ask What was the test verdict on COc1ccccc1OCC(O)COC(N)=O (centres undefined) ?
-- reply inactive

-- ask Assay outcome for Cc1[nH]cnc1-c1ccc(Cl)cc1 : what was it?
-- reply inactive

-- ask Dear colleague, could you share the recorded outcome for O=C(Nc1ccc(Cl)cc1)Nc1ccc(Cl)c(Cl)c1 when you have a moment?
-- reply active

-- ask For CC(C)=CCC1C(=O)N(c2ccccc2)N(c2ccccc2)C1=O , what call appears in the results of this test?
-- reply inactive

-- ask What did this assay record as the result for COc1ccc(OC(=O)N(CC(=O)O)Cc2ccc(OCCc3nc(-c4ccccc4)oc3C)cc2)cc1 ?
-- reply active

-- ask What outcome does the record of this test show for COc1ccc(S(=O)(=O)Nc2nnc(CC(C)C)s2)cc1 ?
-- reply inactive

-- ask Which outcome did this test record for the compound CCN(CC)CC(=O)Oc1ccc(NC(C)=O)cc1 ?
-- reply inactive

-- ask Which outcome was assigned to COc1cc(C(=O)N2CCCCCCC2)cc(OC)c1OC in this test?
-- reply inactive

-- ask // return assay outcome for CCOc1ccc2ccccc2c1C(=O)N[C@@H]1C(=O)N2[C@@H]1SC(C)(C)[C@@H]2C(=O)O
-- reply inactive

-- ask Which outcome was assigned to Cc1ncc([N+](=O)[O-])n1CC(C)O (centres undefined) in this test?
-- reply inactive

-- ask What did the test return for CCC(C(=O)OCCN1CCOC(c2ccccc2)C1C)c1ccccc1 (centres undefined) ?
-- reply inactive

-- ask In this assay, the call recorded for C[C@@H]1C[C@H]2[C@@H]3CCC4=CC(=O)C=C[C@]4(C)[C@@]3(F)[C@@H](O)C[C@]2(C)[C@@]1(O)C(=O)CO was what?
-- reply inactive

-- ask Hey, what did the test say about O=C(O)COc1nn(Cc2ccccc2)c2ccccc12 ?
-- reply inactive

-- ask Can you look up the reported call for CCCCCCCCCCCCCC(=O)OC(C)C for me?
-- reply inactive

###

assay: kinase inhibitors against Plasmodium liver-stage infection, cell-based, known kinase inhibitor set, luminescence, hepatoma host viability (AID 624392); conditions: Plasmodium liver stage in hepatoma cells, luciferase luminescence, concentration not given here; hits give low values;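 note: infected cells incubated roughly two days before readout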
Activity calls are given as the source filed them. The rule behind the calls is not given here.
measurement kind: parasite % of control

-- ask I am curious: what parasite % of control value has been reported for Cc1cc(C)c2c(n1)sc1c(N)ncnc12 ?
-- reply 24.3% (inactive)

-- ask Any idea what its parasite % of control is? The compound is CN1CCC(n2cnc(-c3ccc(F)cc3)c2-c2ccnc(NCCO)n2)CC1
-- reply 138% (inactive)

-- ask Bench note: what parasite % of control did O=C1NC(=NCCc2ccccc2F)SC1=Cc1ccc2ncccc2c1 show?
-- reply 44.4% (inactive)

-- ask GET /values?readout=parasite % of control&item= NC(=O)c1cccc(Nc2nccc(Nc3cccc(F)c3)n2)c1
-- reply 398% (inactive)

-- ask State the recorded parasite % of control for this entry: Cn1cc(C2=C(c3cn(C)c4ccc(N)cc34)C(=O)NC2=O)c2ccccc21
-- reply 36.7% (inactive)

-- ask Could you tell me which parasite % of control is on file for CNC(=O)c1cncc(/C=C/c2c(C)cccc2C)c1 ?
-- reply 86.6% (inactive)

-- ask Tell me the measured parasite % of control of CC1=C(C(=O)Nc2ccc3n[nH]c(C)c3c2)C(c2ccc(C(F)(F)F)cc2)CC(=O)N1 (stereo not given) , please.
-- reply 202% (inactive)

-- ask Quick check: parasite % of control of O=C(O)c1ccc(Oc2nccc(-c3c(-c4ccc(F)cc4)ncn3C3CCNCC3)n2)cc1 ?
-- reply 117% (inactive)

-- ask Please look up its parasite % of control: O=c1c(Oc2ccc(F)cc2F)cc2cnc(NC3CCOCC3)nc2n1C1CCS(=O)(=O)CC1
-- reply 83.4% (inactive)

-- ask Can you look up the measured parasite % of control of O=C1NC(=Nc2ccccc2)SC1=Cc1ccc2ncccc2c1 for me?
-- reply 68.1% (inactive)

###

tested on: R275C; assay: modulators of BK channel variants, profiling panel, selectivity assay, cell-based, U2OS BacMam, thallium flux, beta subunits (AID 1259406); details: at 30 µM;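 note: initial slope of Thallos dye fluorescence rise after thallium is added; log ratio against the mean of 0.3% DMSO vehicle wells on the same plate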
Record form. Attribute: log fold change Tl+ flux. Fill in for each entry.
Give your answer as a number; write no unit.

-- ask So what does the record say about log fold change Tl+ flux for CCCN(CCC)S(=O)(=O)c1ccc(C(=O)O)cc1 ?
-- reply -0.00526

-- ask GET /values?readout=log fold change Tl+ flux&item= Oc1ccc(/C=C/c2cc(O)cc(O)c2)cc1
-- reply 0.00518

-- ask Quick check: log fold change Tl+ flux of CC(=O)CC(c1ccccc1)c1c(O)c2ccccc2oc1=O (configuration not stated) ?
-- reply 0.00879

-- ask What log fold change Tl+ flux value was documented for this compound, CCS(=O)(=O)CCn1c([N+](=O)[O-])cnc1C ?
-- reply 0.0103

-- ask What log fold change Tl+ flux value was documented for this compound, C[C@]12CCC(=O)C=C1CC[C@@H]1[C@@H]2[C@@H](O)C[C@@]2(C)[C@H]1CC[C@]2(O)C(=O)CO ?
-- reply -0.0265

-- ask Suppose we examine the compound C/C=C/C(=O)N(CC)c1ccccc1C ; what log fold change Tl+ flux value has been reported?
-- reply -0.0159

-- ask I'd like to know its log fold change Tl+ flux. The compound in question is COC(=O)Nc1nc2ccc(C(=O)c3ccccc3)cc2[nH]1
-- reply -0.00107

-- ask Return reported log fold change Tl+ flux; argument: C[C@]12CCC(=O)C=C1CC[C@@H]1[C@@H]2C(=O)C[C@@]2(C)[C@H]1CC[C@]2(O)C(=O)CO
-- reply -0.0438

-- ask Entry Nc1c2c(nc3ccccc13)CCCC2 : reported log fold change Tl+ flux = ?
-- reply 0.0238

-- ask Item Cc1cn([C@H]2C[C@H](N=[N+]=[N-])[C@@H](CO)O2)c(=O)[nH]c1=O has what recorded log fold change Tl+ flux?
-- reply -0.0157

-- ask Sample Cc1onc(-c2c(Cl)cccc2Cl)c1C(=O)N[C@@H]1C(=O)N2[C@@H]1SC(C)(C)[C@@H]2C(=O)O — what was its log fold change Tl+ flux?
-- reply -0.0255

-- ask Recorded log fold change Tl+ flux for N[C@@H](C(=O)N[C@@H]1C(=O)N2C(C(=O)O)=C(Cl)CS[C@H]12)c1ccccc1 , please?
-- reply 0.0278

-- ask Entry under review: NNCCc1ccccc1 . Reported log fold change Tl+ flux?
-- reply -0.025

-- ask Which log fold change Tl+ flux is reported for this compound? c1ccc2c(CC3=NCCN3)cccc2c1
-- reply -0.0401

-- ask Consider the compound shown here: CC(=O)Nc1nnc(S(N)(=O)=O)s1 What is its recorded log fold change Tl+ flux?
-- reply 0.0184

-- ask GET /values?readout=log fold change Tl+ flux&item= CN(C)CC/C=C1\c2ccccc2COc2ccccc21
-- reply -0.0142

-- ask GET /values?readout=log fold change Tl+ flux&item= NS(=O)(=O)c1cc2c(cc1C(F)(F)F)NCNS2(=O)=O
-- reply -0.0328

-- ask Looking for the measured log fold change Tl+ flux of Cn1cnc([N+](=O)[O-])c1Sc1ncnc2nc[nH]c12 , can you help?
-- reply -0.0406

-- ask Name the recorded log fold change Tl+ flux for COc1cc2nc(N(C)CCCNC(=O)C3CCCO3)nc(N)c2cc1OC (configuration not stated) .
-- reply -0.0434

-- ask # lookup: log fold change Tl+ flux of COc1cc([C@@H]2c3cc4c(cc3[C@H](O)[C@H]3COC(=O)[C@H]23)OCO4)cc(OC)c1OC
-- reply -0.0185

-- ask Reported log fold change Tl+ flux, compound CCCSc1ccc2nc(NC(=O)OC)[nH]c2c1 : ____
-- reply 0.0372

-- ask I have this compound here, CO[C@@]1(NC(=O)Cc2cccs2)C(=O)N2C(C(=O)O)=C(COC(N)=O)CS[C@@H]21 , and I need its recorded log fold change Tl+ flux.
-- reply 0.0592
